FYI, the data here is from ChEMBL document CHEMBL1129593.

biological target: Sodium-dependent dopamine transporter (Rattus norvegicus, UniProt P23977); assay: Inhibition of [3H]dopamine uptake at the dopamine transporter in rat striatal tissue; assay type: functional, tissue-based, Striatum
Sequence (P23977 whole entry): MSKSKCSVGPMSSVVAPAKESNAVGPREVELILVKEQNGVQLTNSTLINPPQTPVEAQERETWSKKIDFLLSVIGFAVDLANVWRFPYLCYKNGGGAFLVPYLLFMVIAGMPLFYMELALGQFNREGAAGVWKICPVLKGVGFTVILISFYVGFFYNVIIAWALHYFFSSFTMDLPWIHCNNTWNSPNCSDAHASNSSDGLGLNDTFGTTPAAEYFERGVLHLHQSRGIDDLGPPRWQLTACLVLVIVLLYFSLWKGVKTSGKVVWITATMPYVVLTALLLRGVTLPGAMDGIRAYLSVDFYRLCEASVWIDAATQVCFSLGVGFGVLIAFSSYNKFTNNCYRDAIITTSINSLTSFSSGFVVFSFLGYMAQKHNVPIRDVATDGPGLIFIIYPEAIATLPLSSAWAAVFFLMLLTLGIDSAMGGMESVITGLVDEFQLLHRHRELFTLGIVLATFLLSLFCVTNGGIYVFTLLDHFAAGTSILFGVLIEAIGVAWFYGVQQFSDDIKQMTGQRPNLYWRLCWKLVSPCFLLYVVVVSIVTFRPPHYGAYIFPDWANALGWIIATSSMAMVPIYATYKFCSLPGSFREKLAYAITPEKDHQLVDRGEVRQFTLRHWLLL
The following compounds are listed with their measured log10(IC50) values.
Scale: decimal log of IC50, IC50 in nM.

OC1(c2cccc(Cl)c2)c2ccccc2C2=NCCN21 (configuration not stated)    0.96
OC1(c2ccc(Cl)cc2Cl)c2ccccc2C2=NCCN21 (configuration not stated)    1.96
OC1(c2ccc(F)cc2)c2ccccc2C2=NCCN21 (configuration not stated)    1.40
OC1(c2cccc(Cl)c2)c2ccccc2C2=NCCCN21 (configuration not stated)    0.11
CC1(C)CN=C2c3ccccc3C(O)(c3ccc(Cl)cc3)N2C1 (configuration not stated)    0.23
OC1(c2ccccc2)c2ccccc2C2=NCCN21 (configuration not stated)    2.09
OC1(c2ccc(Cl)cc2)c2cc(F)ccc2C2=NCCN21 (configuration not stated)    1.18
OC1(c2ccccc2)c2cc(Cl)ccc2C2=NCCN21 (configuration not stated)    1.74

Please state recorded log10(IC50) (tested on Sodium-dependent dopamine transporter (Rattus norvegicus, UniProt P23977)) of OC1(c2ccc(F)cc2)c2cc(Cl)ccc2C2=NCCN21 (configuration not stated)
1.72

Fill in the recorded log10(IC50) for this compound, with Sodium-dependent dopamine transporter (Rattus norvegicus, UniProt P23977) as test system: OC1(c2ccccc2)c2ccccc2C2=NCCCCN21 (configuration not stated)
1.04

GET /values?readout=log10(IC50)&system=Sodium-dependent dopamine transporter (Rattus norvegicus, UniProt P23977)&item= OC1(c2ccc(F)cc2)c2ccccc2C2=NCCCN21 (configuration not stated)
0.93

For Sodium-dependent dopamine transporter (Rattus norvegicus, UniProt P23977), provide log10(IC50) of OC1(c2ccccc2F)c2ccccc2C2=NCCCN21 (configuration not stated) please.
1.95

---

molecular target: Sodium-dependent serotonin transporter (Rattus norvegicus, UniProt P31652); experiment: Compound was tested for inhibition of [3H]5-HT reuptake at Serotonin transporter
Sequence (P31652 whole entry): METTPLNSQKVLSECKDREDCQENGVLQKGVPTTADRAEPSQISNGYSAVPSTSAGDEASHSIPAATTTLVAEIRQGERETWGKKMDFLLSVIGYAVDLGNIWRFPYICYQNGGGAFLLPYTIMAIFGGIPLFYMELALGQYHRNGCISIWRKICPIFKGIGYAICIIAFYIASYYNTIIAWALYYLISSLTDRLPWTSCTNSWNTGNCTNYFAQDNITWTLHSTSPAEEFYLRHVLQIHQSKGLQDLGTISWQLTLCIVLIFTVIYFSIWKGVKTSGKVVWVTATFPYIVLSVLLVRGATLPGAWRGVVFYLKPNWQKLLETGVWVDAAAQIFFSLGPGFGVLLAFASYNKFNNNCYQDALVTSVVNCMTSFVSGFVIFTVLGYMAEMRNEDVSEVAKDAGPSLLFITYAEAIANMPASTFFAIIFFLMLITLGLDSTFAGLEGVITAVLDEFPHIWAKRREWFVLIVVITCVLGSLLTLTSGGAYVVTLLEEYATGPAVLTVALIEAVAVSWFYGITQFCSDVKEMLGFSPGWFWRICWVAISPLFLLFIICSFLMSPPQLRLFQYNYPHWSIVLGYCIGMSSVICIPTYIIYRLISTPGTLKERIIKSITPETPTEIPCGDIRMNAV
property_label: IC50 (nM)
Enter your answer as a number in nM; do not include the unit.

Please report the recorded IC50 for OC1(c2ccc(Cl)cc2)c2ccccc2C2=NCCN21 (stereo unspecified) .
231

---

target: Sodium-dependent dopamine transporter (Rattus norvegicus, UniProt P23977); assay: Compound was tested for inhibition of [3H]dopamine uptake at the dopamine transporter in rat […] tissue; format: tissue-based, Striatum
property_label: pIC50
// pIC50 here means minus log10 of the molar concentration (mol/L)

Given CC1(C)CN2C(=N1)c1ccccc1C2(O)c1ccc(Cl)cc1 (stereo unspecified) , state its recorded pIC50.
6.97

---

target: Sodium-dependent dopamine transporter (Rattus norvegicus); experiment: The ratio of uptake/binding at Dopamine transporter; assay type: functional
Response field label: string, one of fulfilled (Uptake/Binding ratio strictly below 1) or not fulfilled.

OC1(c2cccc(Cl)c2)c2ccccc2C2=NCCN21 (stereo unspecified)    not fulfilled
OC1(c2ccc(Cl)c(Cl)c2)c2ccccc2C2=NCCCCN21 (stereo unspecified)    fulfilled

Is the reported Uptake/Binding ratio for OC1(c2ccccc2)c2cc(F)ccc2C2=NCCN21 (stereo unspecified) strictly below 1?
not fulfilled

hey, is Uptake/Binding ratio for OC1(c2ccc(Cl)c(Cl)c2)c2ccccc2C2=NCCN21 (stereo unspecified) lower than 1 or not?
fulfilled

I'd appreciate it if you could check whether OC1(c2ccc(Cl)cc2Cl)c2ccccc2C2=NCCN21 (stereo unspecified) has Uptake/Binding ratio smaller than 1.
not fulfilled

Please indicate whether the reported Uptake/Binding ratio of OC1(c2ccc(Cl)cc2)c2ccccc2C2=NCCCN21 (stereo unspecified) is strictly below 1.
fulfilled

Uptake/Binding ratio strictly < 1 for this compound? OC1(c2ccccc2)c2ccccc2C2=NCCN21 (stereo unspecified)
not fulfilled

Report whether reported Uptake/Binding ratio is lower than 1 (strictly) for OC1(c2ccc(I)cc2)c2ccccc2C2=NCCN21 (stereo unspecified)
fulfilled

hey, is Uptake/Binding ratio for OC1(c2ccc(Br)cc2)c2ccccc2C2=NCCN21 (stereo unspecified) lower than 1 or not?
not fulfilled

Is it true that Uptake/Binding ratio reported for OC1(c2ccc(F)cc2)c2ccccc2C2=NCCN21 (stereo unspecified) is less than 1?
not fulfilled

Answer whether the compound OC1(c2ccccc2)c2cc(Cl)ccc2C2=NCCN21 (stereo unspecified) has Uptake/Binding ratio strictly less than 1
fulfilled

I wonder whether OC1(c2ccc(Cl)cc2)c2cc(F)ccc2C2=NCCN21 (stereo unspecified) has Uptake/Binding ratio below 1. Can you tell?
not fulfilled

Confirm or reject: Uptake/Binding ratio of OC1(c2ccccc2)c2ccccc2C2=NCCCCN21 (stereo unspecified) lies strictly below 1
not fulfilled

Quick check: Uptake/Binding ratio of OC1(c2ccccc2Cl)c2ccccc2C2=NCCN21 (stereo unspecified) under 1?
not fulfilled
